- Tested on: 323965-272-R-J2-PDC complex spheroid growth, % test/control
- ASSAY_EXPLANATION: Anticancer human tumor 323965-272-R-J2-PDC patient-derived pancreatic carcinoma cell line growth inhibition [Asc]
- SETTINGS: second compound 0.3 µM; first compound 0.01 µM; active compounds read low
MEASURED_ENDPOINT: viability, T/C (%)
One number for each entry, in %.

Look up viability, T/C for the entries below, preserving their order.
1. NC1CCC(NC2CC2c2ccccc2)CC1 (stereo not drawn) + CCN1C(C(=O)NC23CCC(C(=O)O)(CC2)CC3)C(c2cccc(Cl)c2F)C2(C(=O)Nc3cc(Cl)ccc32)C12CCCCC2
2. COc1c(OCCCN2CCOCC2)ccc2c3n(c(=NC(=O)c4cnc(N)nc4)nc12)CCN3 + CCN1C(C(=O)NC23CCC(C(=O)O)(CC2)CC3)C(c2cccc(Cl)c2F)C2(C(=O)Nc3cc(Cl)ccc32)C12CCCCC2
3. Cn1ncnc1[C@H]1c2n[nH]c(=O)c3cc(F)cc(c23)N[C@@H]1c1ccc(F)cc1 + CCN1C(C(=O)NC23CCC(C(=O)O)(CC2)CC3)C(c2cccc(Cl)c2F)C2(C(=O)Nc3cc(Cl)ccc32)C12CCCCC2

Solution:
[96.8, 89.2, 108]

* * *

- Test system: 323965-272-R-J2-PDC complex spheroid growth, % test/control
- ASSAY_EXPLANATION: Anticancer human tumor 323965-272-R-J2-PDC cell line growth inhibition [Asc];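 note: compound exposure lasted 7 days starting three days after spheroid seeding; 100% = DMSO vehicle control wells with viability set relative to vehicle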
- SETTINGS: second compound 0.1 µM; first compound 1 µM; active compounds read low
Recorded viability, T/C determines the label; the label ranges are bucket 1 = under 50%, bucket 2 = from 50% up to 70%, bucket 3 = 70% and over

O=C(c1ccc(F)c(F)c1Nc1ccc(I)cc1F)N1CC(O)([C@@H]2CCCCN2)C1 + CNC(C)C(=O)NC1CN(S(=O)(=O)c2cccc(S(=O)(=O)N3CCC4CCC(C(=O)NC(c5ccccc5)c5ccccc5)N4C(=O)C(NC(=O)C(C)NC)C3)c2)CCC2CCC(C(=O)NC(c3ccccc3)c3ccccc3)N2C1=O
bucket 1
O=C(c1cc(Cc2n[nH]c(=O)c3ccccc23)ccc1F)N1CCN(C(=O)C2CC2)CC1 + Cc1c(S(C)(=O)=O)c(-c2cc(F)cc(N3CCN(c4ccc(NS(=O)(=O)c5ccc(NC(CCN6CCC(C(=O)OCCCP(=O)(O)O)CC6)CSc6ccccc6)c(S(=O)(=O)C(F)(F)F)c5)cc4)CC3)c2)c(-c2ccc(Cl)cc2)n1C(C)C
bucket 3
C=CC(=O)N1CCN(c2nc(=O)n(-c3c(C)ccnc3C(C)C)c3nc(-c4c(O)cccc4F)c(F)cc23)C(C)C1 (stereo not drawn) + Cc1c(S(C)(=O)=O)c(-c2cc(F)cc(N3CCN(c4ccc(NS(=O)(=O)c5ccc(NC(CCN6CCC(C(=O)OCCCP(=O)(O)O)CC6)CSc6ccccc6)c(S(=O)(=O)C(F)(F)F)c5)cc4)CC3)c2)c(-c2ccc(Cl)cc2)n1C(C)C
bucket 2

Problem: Form: Item = O=C(c1ccc(F)c(F)c1Nc1ccc(I)cc1F)N1CC(O)([C@@H]2CCCCN2)C1 + Cc1c(S(C)(=O)=O)c(-c2cc(F)cc(N3CCN(c4ccc(NS(=O)(=O)c5ccc(NC(CCN6CCC(C(=O)OCCCP(=O)(O)O)CC6)CSc6ccccc6)c(S(=O)(=O)C(F)(F)F)c5)cc4)CC3)c2)c(-c2ccc(Cl)cc2)n1C(C)C ; Class = ?
Solution: bucket 1

Problem: Lab log: COc1c(OCCCN2CCOCC2)ccc2c3n(c(=NC(=O)c4cnc(N)nc4)nc12)CCN3 + Cc1c(S(C)(=O)=O)c(-c2cc(F)cc(N3CCN(c4ccc(NS(=O)(=O)c5ccc(NC(CCN6CCC(C(=O)OCCCP(=O)(O)O)CC6)CSc6ccccc6)c(S(=O)(=O)C(F)(F)F)c5)cc4)CC3)c2)c(-c2ccc(Cl)cc2)n1C(C)C — assign viability, T/C category
Solution: bucket 1

Problem: Into which category would you place CCN1CCN(Cc2ccc(Nc3ncc(F)c(-c4cc(F)c5nc(C)n(C(C)C)c5c4)n3)nc2)CC1 + CNC(C)C(=O)NC1CN(S(=O)(=O)c2cccc(S(=O)(=O)N3CCC4CCC(C(=O)NC(c5ccccc5)c5ccccc5)N4C(=O)C(NC(=O)C(C)NC)C3)c2)CCC2CCC(C(=O)NC(c3ccccc3)c3ccccc3)N2C1=O ?
Solution: bucket 3
